experiment.notes: antimalarial activity against Dd2 strain (AID 2302)
experimental.context: P. falciparum Dd2 in RBCs, LDH growth readout, 72 h; at 2 µM
The source made the active and inactive calls.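 Rule for the calls: active = growth inhibition above 50% at the single 2 µM test dose, taken to imply half-maximal potency below 2 µM; inactive = the rest.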
Classes to choose from: active, inactive

Before answering, review these 4 worked examples.
{"chemical.structure": "Cc1cccc2[nH]c(-c3ccc(-c4ccc(NC(=O)N[C@@H]5C[C@H]5c5ccccc5)cc4)cc3)nc12", "label.value": "inactive"}
{"chemical.structure": "COc1ccc(-c2cncc3ccc(C(=O)NCc4ccncc4)nc23)cc1", "label.value": "active"}
{"chemical.structure": "Nc1c(-c2ccc(C(=O)NCCNCc3ccccc3)cc2)cnn1-c1ccc(C(F)(F)F)cc1", "label.value": "inactive"}
{"chemical.structure": "CCCC1(NC[C@@H](O)[C@H](Cc2ccccc2)NC(=O)c2cc(NCC)cc(N3CCCCS3(=O)=O)c2)CCC1", "label.value": "active"}

Could you now consider this next molecule?
QUERY: What did the test return for `c1cncc(Oc2ccc(Nc3ccnc4cc(-c5cccc(CN6CCOCC6)c5)ccc34)cc2)c1` ?
RESULT: active

Source of measurements: PubChem BioAssay
